# Experiment: mitochondrial membrane potential change in A549 cells, profiling panel, cell-based, JC-1 fluorescence, basal, 24 h, 100 nL (AID 1138);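 further: A549 lung adenocarcinoma cells under basal conditions with no added stimulus; test concentration not given here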
# Reported Conditions: higher = more signal
z-score below -0.5 gives not fulfilled; z-score at or above it gives fulfilled.

Reference set (3 entries):
Compound	Discrete Label
O=C1OCCC/C=C\[C@H]2OC34C=CCN(Cc5ccccc5)C(=O)[C@H]3N(CCO)C(=O)[C@@H]4C12 (stereo partly specified)	fulfilled
COc1cc(CO)cc(I)c1O[C@H]1C=C(C(=O)NCCO)C[C@@H](N(CCN2CCOCC2)C(=O)C2CCCO2)[C@@H]1O (stereo partly specified)	fulfilled
C[C@]12C(=O)N(CCO)[C@@H]3C(=O)N(c4ccc(Cl)cc4)CC=CC31O[C@@H]1/C=C\CCCOC(=O)C12 (stereo partly specified)	not fulfilled

Q. Check if z-score >= -0.5 (inclusive). Item: [N-]=[N+]=NCc1ccccc1[C@H]1OC(c2ccc(OCCCO)cc2)=N[C@@]1(Cc1ccccc1N=[N+]=[N-])C(=O)O
A. fulfilled

Q. Check if z-score >= -0.5 (inclusive). Item: C=CC[C@H](O)c1ccc(O)c2ccccc12
A. fulfilled

Q. Check if z-score >= -0.5 (inclusive). Item: CCOC(=O)C1=C[C@@H](C(C)(C)C)N(S(=O)(=O)c2ccc(C)cc2)[C@H]1c1ccc(OC)cc1
A. fulfilled

Q. Check if z-score >= -0.5 (inclusive). Item: COC(=O)[C@@]1(Cc2ccc(OC)cc2)[C@H]2c3cc(C(=O)N(C)C)n(Cc4c(CO)[nH]cc(C)c4=O)c3C[C@H]2CN1C(=O)c1ccccc1
A. fulfilled

* * *

# Experiment: modulators of S6 phosphorylation in cells, primary screen, cell-based, A549, cytoblot, luminescence, serum-stimulated (AID 1158);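 further: serum-stimulated A549 lung adenocarcinoma cells; signal is phosphorylated S6 detected by cytoblot immunostaining with HRP secondary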
# Reported Conditions: A549 phospho-S6 cytoblot, 5 h, higher = more signal
Quantity Kind: z-score
Give a plain numeric answer without units written out.

Record excerpt, results attached:
Smiles Structure	z-score
[N-]=[N+]=Nc1ccccc1C[C@@]1(C(=O)NCc2ccccc2)N=C(c2ccc(OCCCO)cc2)O[C@@H]1c1ccccc1	0.308
CC(C)N1C(=O)[C@@]2(Cc3ccccc31)c1ccccc1C(=O)N(Cc1ccccc1)[C@H]2c1ccc(CO)cc1	-0.274
COc1ccc([Si](C)(C)[C@@H]2[C@@H](CC(=O)N3Cc4ccccc4C[C@H]3CO)O[C@]3(C(=O)N(Cc4ccc(I)cc4)c4ccccc43)[C@H]2C)cc1	0.192
C=CCNC(=O)[C@@H]1[C@H]2C(=O)O[C@H](c3ccccc3)[C@H](c3ccccc3)N2[C@H](c2ccc(O)cc2)[C@@]12C(=O)N(C(=O)OCCOC)c1ccc(C#CCC(C(=O)OC)C(=O)OC)cc12	0.0945
CC(=O)NCCCC[C@@H]1NC(=O)[C@H]2C[C@@H](C(=O)O)[C@@H](c3cccc(OCCO)c3)N2C1=O	0.435

Q. Give reported z-score value for CN(C)CCCC[C@@H]1NC(=O)[C@H]2C[C@@H](C(=O)NCCCCCCNC(=O)CS)[C@@H](c3cccc(OCCO)c3)N2C1=O
A. -0.617

Q. Give reported z-score value for C[C@]1(C(=O)NC2CC2)c2ccccc2C(=O)N(Cc2cc(F)cc(C(F)(F)F)c2)[C@H]1c1ccc(CO)cc1
A. 0.0446

* * *

As shown below, each of these molecules has a reported z-score value.
# Experiment: P. aeruginosa biofilm formation inhibitors, primary screen, strain PAO1, LB-PBS medium, absorbance 600 nm (AID 1176); further: test concentration not given here
# Reported Conditions: P. aeruginosa PAO1 growth/biofilm, A600, 12 h; higher = more signal
Give a plain numeric answer without units written out.

> print(dat)
                                   molecule  result
1  CC(C)N1CC=CC23O[C@@H]4/C=C\CCCOC(=O)C4[C@H]2C(=O)N(C(C)CO)[C@@H]3C1=O (some centres not stated)  0.0126
2  COC(=O)[C@@]1(Cc2ccc(F)cc2)[C@H]2c3cc(C(=O)N4CCCC4)n(C[C@H](O)CO)c3C[C@H]2CN1C(=O)c1ccccc1   0.812
3  CC(C)N1C(=O)[C@@]2(Cc3ccccc31)c1ccccc1C(=O)N(Cc1ccccc1C(F)(F)F)[C@H]2c1ccc(CO)cc1   0.146
4  CN1C(=O)C2C(C1=O)C1C=C(CCCO)C2C(C2CC2)N1C (configuration not stated)  -0.214
5  COc1ccc([Si](C)(C)[C@@H]2[C@@H](CC(=O)N3Cc4ccccc4C[C@H]3CO)O[C@]3(C(=O)N(Cc4ccc(I)cc4)c4ccccc43)[C@H]2C)cc1   0.662

Q. Give reported z-score value for CC(=O)NCCCC[C@@H]1NC(=O)[C@H]2C[C@@H](C(=O)O)[C@@H](c3cccc(OCCO)c3)N2C1=O
A. 0.118

Q. Give reported z-score value for CC(C)c1ccc(NN2C(C(O)C3=C[C@H]4C[C@@H](C3)C4(C)C)C=CC3C(=O)N(c4ccccc4)C(=O)C32)cc1 (some centres not stated)
A. 0.863

Data provenance is PubChem BioAssay.
